# Tested on: KM12 colon
# Assay: NCI tumour cell line growth inhibition, 48 h
Parameter: TGI

>  <Compound>
Cc1cc(NS(=O)(=O)c2ccc(NC(=O)c3cccc4c(NNc5ccc(S(=O)(=O)N=C(N)N)cc5)c5ccccc5nc34)cc2)no1

>  <TGI>
> 100 µM

$$$$

Challenge: Provide value of TGI for this record tested with KM12 colon: Cc1ccc(C(=O)O/N=C2/CCCCC2CN(C)C)cc1 (stereo not given)
Response given: > 100 µM

Challenge: Hi! What's the reported TGI for O=[N+]([O-])c1cc(O)c(O)cc1-c1cn2ccsc2n1 on KM12 colon?
Response given: > 100 µM

Challenge: Form: Entry = CCOC(=O)C(=O)C1C(=O)Nc2ccccc21 (stereo not given) | System = KM12 colon | TGI = ____
Response given: > 100 µM
